# tested.on: unphosphorylated-BTK kinase domain (UP-BTK), GST-tagged human BTK (389-659aa) (Homo sapiens (Human), UniProt Q06187)
# Sequence (Q06187 389-659): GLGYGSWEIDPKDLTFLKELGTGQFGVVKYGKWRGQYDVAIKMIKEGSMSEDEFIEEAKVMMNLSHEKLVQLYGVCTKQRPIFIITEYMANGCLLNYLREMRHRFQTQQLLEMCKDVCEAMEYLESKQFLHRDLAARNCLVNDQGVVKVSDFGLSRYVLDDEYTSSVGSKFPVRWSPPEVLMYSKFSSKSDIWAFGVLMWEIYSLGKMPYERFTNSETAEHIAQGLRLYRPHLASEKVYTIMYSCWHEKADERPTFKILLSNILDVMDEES
# test.method.notes: BTK Kinase Lanthascreen Binding Assay
# condition.details: compound, 50 nM Tracer 236, 2 nM anti-GST antibody, 60 minutes; pIC50 = negative log of the IC50 in molar
assay.readout: BTK_I_binding pIC50

| molecule | value.measured |
| --- | --- |
| CN(C)C/C=C/C(=O)N[C@@H]1CC[C@H](NC(=O)c2sc3nccc4c3c2NC(=O)N4c2ccc(Oc3ccccc3)c(Cl)c2)C1 | 6.98 |
| Cc1cc(Oc2ccccc2)ccc1N1C(=O)Nc2c(C(=O)N[C@@H]3CCC[C@@H]3N)sc3nccc1c23 [Example 12] | 7.03 |
| C=CC(=O)N[C@H]1CC[C@H](NC(=O)c2sc3nccc4c3c2NC(=O)N4c2ccc(Oc3ccccc3)cc2C)C1 (single isomer, unassigned) | 6.85 |
